target: UniProt P80404
Sequence (P80404 whole entry): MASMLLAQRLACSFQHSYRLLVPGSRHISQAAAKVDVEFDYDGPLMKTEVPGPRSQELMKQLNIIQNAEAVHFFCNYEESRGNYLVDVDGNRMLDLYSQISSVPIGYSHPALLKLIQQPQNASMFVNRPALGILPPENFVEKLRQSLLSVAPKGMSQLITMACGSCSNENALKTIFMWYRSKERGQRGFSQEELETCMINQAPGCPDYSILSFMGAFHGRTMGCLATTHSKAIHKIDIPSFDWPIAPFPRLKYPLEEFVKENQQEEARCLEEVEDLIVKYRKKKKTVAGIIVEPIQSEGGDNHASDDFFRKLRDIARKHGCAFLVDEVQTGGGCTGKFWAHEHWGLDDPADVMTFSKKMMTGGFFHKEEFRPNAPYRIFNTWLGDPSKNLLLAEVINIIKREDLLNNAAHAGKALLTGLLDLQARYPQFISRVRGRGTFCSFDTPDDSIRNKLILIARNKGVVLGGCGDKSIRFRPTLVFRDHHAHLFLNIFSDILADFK
endpointName: pKi
Reminder that pKi means the negative base-10 logarithm of the concentration expressed in mol/L.

Enquiry: Item under review: O=C(O)CNC(=S)Nc1ccccc1 . Reported pKi?
Return: 4.04

* * *

Catalogue of pIC50 readings, one per entry.
molecular target: GABA-A receptor; anion channel; assay: Inhibition of [3H]GABA binding to Gamma-aminobutyric acid A (GABA-A) receptor of rat brain membranes
Reminder that pIC50 means the negative base-10 logarithm of the concentration expressed in mol/L.

Enquiry: Item under review: N=C(N)NCC(=O)O [GUANIDINO ACETATE] . Reported pIC50?
Return: 5.68

New cases:
Enquiry: Item under review: O=C(O)CCc1c[nH]cn1 . Reported pIC50?
Return: 3.54

Enquiry: Item under review: Nc1nc(CCC(=O)O)cs1 . Reported pIC50?
Return: 4.17

Enquiry: Item under review: N/C(S)=N\CC(=O)O . Reported pIC50?
Return: 4.74

Enquiry: Item under review: N=C(N)NCCC(=O)O . Reported pIC50?
Return: 5.74

Enquiry: Item under review: O=C(O)Cc1c[nH]cn1 . Reported pIC50?
Return: 6.05

Enquiry: Item under review: N=C(N)SCCC(=O)O . Reported pIC50?
Return: 4.54
